Assay: soluble fraction after stress (log2 fold change); higher = more stays soluble; pooled small domains, quantitative proteomics
Settings: stress: pH 4
For each entry below, report its soluble fraction (log2) value.
One number for each entry.

Solved entries (count: 5):
[
  {
    "record_sequence": "HMVISNDEFEDYLNRATEQLVSELSSGKNPRDAVHDLALTFADQHNKSYDAYQRMADSLEARMHTL",
    "measured": -0.156
  },
  {
    "record_sequence": "HMINVLTPKQIEATTIAVKYGYYENPRTVSMRELSEISGIARSTLQEHLSKAEAALMILAAKSQL",
    "measured": -0.0956
  },
  {
    "record_sequence": "HMKELTYSDFRKAYPDIQGNLFGMAERYITALDWTEVAAKVETDEELRKERDIFYLVKTYIRKYVQ",
    "measured": -0.695
  },
  {
    "record_sequence": "HMDDDIKNALDVLPEQYRMTVYYADVEGLAYKEIGAIMNTPIGTVMSRIHRGRSQLRVLLAAVAADR",
    "measured": -0.0958
  },
  {
    "record_sequence": "HMQQLDDDTVAYVADNGIAVKSKNGKELSVDTSGLSYDIIMDMFRNLPRNGDFFSSKYWSDNIQKAQAR",
    "measured": -1.34
  }
]

Here are 2 sequences. What values of soluble fraction (log2) were reported for them?
1. HMSNQLAVPDVTNMKANAAADRLRQQGLRVELKTESSNTVPRGMAIRTDPAASTMVARGGRVTLIISSGKG
2. HMDETYRRQLEDLAREHGAEYLHGILREVDPASAEAIHANNIKRVIRALEFYHLSGKKISEHNETERQ

-0.0724
-0.00358

Here are 3 sequences. What values of soluble fraction (log2) were reported for them?
1. HMRSVTLQTDREGDILYVDGKQIGVSPQRLELSYGVHTIRAERGEQHTEKELEVTETGGETVVTLGFG
2. HMPAVVEFDVKPRGEVLVDGIWYGRIPELREVELRPGRHHLRVQNAGHPSLDLVVTLEPGERMTVTHTFA
3. HMSLETRRYQLPRTDAQTASGLLRSLSGLPGVREVNLSGEGVAYLKVDSKGFDEQNVIKLLAGE

1. -0.0908
2. -0.33
3. -0.0727

Here are 7 sequences. What values of soluble fraction (log2) were reported for them?
1. HMVDLAPTEEIIKNLPNNSRSLLIPTLQKIQNAYRYLPSPAMELLSEFLNVTRAEIYGVISFYPSLL
2. HMPTMTDIPIKIIRSRRRTLAIEVREGGEVIVRAPLYSRKAEIDAFVKAHENWIITKYNLMITKQN
3. HMQENKVLEGKVLEKKKKKVFVDLSPFGVGVIRGVNYLEAKNELKDIEEGDNIKVRVLEIDNENGFIELAL
4. HMISVTNRTGTGLNDVKVEVFPVGRQMVFSATVFRVESEATNRFSLGELRGSDGTPFNQRVHRPESI
5. HMYAGTWTTESGQWKYRQDDGTYAKGWLQDTDGRWYYFDANGRMLSNTATPDGYQVGEDGAWVNH
6. HMDETELLLQKAIATLPDKQRVVFNLKYFDEMKYEEMSELLETSVGALKASYHLAVKKIEQFFHDA
7. HMPAERLSMRKIYEILRLKYGHGLSNREVALSVSVSRSTVADYLLRAQAAGLSWPLPDGLDETGLEQRLFP

1. 0.129
2. 0.352
3. -1.13
4. -0.07
5. -0.651
6. -0.241
7. -0.572
